System: OVCAR-3
protocol.summary: NCI tumour cell line growth inhibition, 48 h
Active and inactive are the calls of the source. Rule as the data show it: active = GI50 up to about 1.1 µM and inactive = higher. *1 amine or outer side, *2 acyl side, *3 side chain or, on linkers, in order; H or OH if unused. Where a SMILES comes first, the peptide text is derived from it. Bridges are numbered along the chain shown (N, C = ends). Roman numbers before positions name the chains, in order. [ ]: non-standard residue; d: D form. Actinocin(9to1) = Cc1c2oc3c(C)ccc(C(=O)[*:1])c3nc-2c(C(=O)[*:2])c(N)c1=O; NMeV = CN[CH](C(=O)O)C(C)C; Sar = CNCC(=O)O
Form field: GI50 (one value per entry).

compound	GI50
COc1ccc(-c2c3c(nc4nc(SCCc5ccccc5)nc(N)c24)CCCC3)cc1OC	> 100 µM (inactive)
COc1ccc(C(=O)/C=C/c2ccc(OCC(=O)N3CCN(c4ccccc4)CC3)cc2)cc1	74.3 µM (inactive)
NCC(NC(=O)OCc1ccccc1)C(=O)O (centres undefined)	> 50 µM (inactive)
Cc1c2oc3c(C)ccc(C(=O)NC4C(=O)NC(C(C)C)C(=O)N5CCCC5C(=O)N(C)CC(=O)N(C)C(C(C)C)C(=O)OC4C)c3nc-2c(C(=O)NC2C(=O)NC(C(C)C)C(=O)N3CCCC3C(=O)N(C)CC(=O)N(C)C(C(C)C)C(=O)OC2C)c(N)c1=O (centres undefined) (I: TVP[Sar][NMeV] / II: TVP[Sar][NMeV]; ester I:1-I:C, II:1-II:C; linker I:N-II:N via Actinocin(9to1); configuration not given here)	0.00105 µM (active)
CCC(C)C1NC(=O)C2CCCN2C(=O)CNC(=O)C(C)NC(=O)C(Cc2ccccc2)NC(=O)C(C(C)C)NC1=O (centres undefined) (cyclo(GPIVFA); configuration not given here)	> 100 µM (inactive)
CC(O)c1ccc[n+](Cc2ccccc2)c1 (centres undefined)	> 400 µM (inactive)
O=C1[C@H](O)[C@@H]2C(O)O[C@H]3[C@@H]2N1C[C@H]3[Si](c1ccccc1)(c1ccccc1)c1ccccc1 (some centres undefined)	> 100 µM (inactive)
Fc1cc2nc3n(c2cc1F)C(c1c(Cl)cccc1Cl)SC3 (centres undefined)	13 µM (inactive)
CCCC#CCOC(=O)c1cc([N+](=O)[O-])cc([N+](=O)[O-])c1	> 100 µM (inactive)
